Can you tell me normalized RNA/DNA level with ligand (log10) for the items I'm about to list?
B1: library; a variant is named by its letters at N, in order (parent)
chain: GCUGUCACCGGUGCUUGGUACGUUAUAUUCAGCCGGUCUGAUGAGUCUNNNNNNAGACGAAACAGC

Variants of: B1
TEST DESCRIPTION: normalized RNA/DNA level with ligand (relative to sTRSVctl = 100) (log10 (% of sTRSVctl)); HEK293T overexpressing SLC46A1; ligand concentration (+) RNA-Seq: 6 mM; higher = less ribozyme self-cleavage, higher mRNA level
CONDITION PARAMETERS: with (6R,S)-folinic acid; ligand present: yes
Enter the number alone.

Need normalized RNA/DNA level with ligand (log10) of "GCAGUC" , thanks.
2.05

Reported normalized RNA/DNA level with ligand (log10) for "GAUUUU" : what is it?
2.03

Param item = "CAGUUA" ; retrieve measured normalized RNA/DNA level with ligand (log10).
1.99

Entry "GCCCCC" has what normalized RNA/DNA level with ligand (log10)?
2.04

I would be grateful if you could share the reported normalized RNA/DNA level with ligand (log10) for "GAACGG" .
2.02

Any idea what its normalized RNA/DNA level with ligand (log10) is? The variant is "UAGGCU"
2.05

Would you mind telling me what normalized RNA/DNA level with ligand (log10) value was observed for "CUUAUG" ?
2.02

Can you look up the measured normalized RNA/DNA level with ligand (log10) of "UGCCGA" for me?
2.02

Look up normalized RNA/DNA level with ligand (log10) for this variant: "UCAUGG"
2.03

For the variant shown here, "UUUCCU" , give the reported normalized RNA/DNA level with ligand (log10).
2.06

Please give the measured normalized RNA/DNA level with ligand (log10) for this variant: "CGGUGU"
1.98

Please give the measured normalized RNA/DNA level with ligand (log10) for this variant: "UGGGAG"
1.93

Field request: normalized RNA/DNA level with ligand (log10) | item: "UAUCCU"
2

Endpoint output: normalized RNA/DNA level with ligand (log10) of "GACCAG" . Value?
2.02

Given the variant "ACUACG" , what is its reported normalized RNA/DNA level with ligand (log10)?
2.01

Field request: normalized RNA/DNA level with ligand (log10) | item: "GCCGGA"
2.02

Quick one: normalized RNA/DNA level with ligand (log10) for "UGUCGG" ?
1.94

Consider the variant "UUCGUA" and give its measured normalized RNA/DNA level with ligand (log10).
1.97

For "GUUACC" , what is its reported normalized RNA/DNA level with ligand (log10)?
2.03

What value of normalized RNA/DNA level with ligand (log10) has been recorded for this entry: "UAGAAC"
2

Given "UACUGU" , state its recorded normalized RNA/DNA level with ligand (log10).
1.98

# input variant: "UGCAUU" ; wanted: its normalized RNA/DNA level with ligand (log10)
2.01
